Test: in vivo
Conditions: male, C57BL/6J, mouse, ip
PARAMETER MEASURED: ED50 (mg/kg)
// return numeric value only (unit: mg/kg, not printed)

Query: Output ED50 of CN1CC[C@]23c4c5ccc(O)c4O[C@H]2[C@@H](O)C=C[C@H]3[C@H]1C5 [Morphine]
Reply: 33

* * *

Test: in vivo
Conditions: male, C57BL/6J, mouse, ip, ED50 (95% confidence intervals) %O2 Saturation
PARAMETER MEASURED: ED50 (mg/kg)
Give the quantity in mg/kg, number only.

Query: Quickly give me recorded ED50 for `CN1CC[C@]23c4c5ccc(O)c4O[C@H]2[C@@H](O)C=C[C@H]3[C@H]1C5`
Reply: 79
